# target_entity: hNLRP3 inflammasome (Homo sapiens, UniProt Q96P20)
# Construct: endogenous in cells; host or cells: THP-1 cells, PMA-differentiated
# Sequence (Q96P20 whole entry): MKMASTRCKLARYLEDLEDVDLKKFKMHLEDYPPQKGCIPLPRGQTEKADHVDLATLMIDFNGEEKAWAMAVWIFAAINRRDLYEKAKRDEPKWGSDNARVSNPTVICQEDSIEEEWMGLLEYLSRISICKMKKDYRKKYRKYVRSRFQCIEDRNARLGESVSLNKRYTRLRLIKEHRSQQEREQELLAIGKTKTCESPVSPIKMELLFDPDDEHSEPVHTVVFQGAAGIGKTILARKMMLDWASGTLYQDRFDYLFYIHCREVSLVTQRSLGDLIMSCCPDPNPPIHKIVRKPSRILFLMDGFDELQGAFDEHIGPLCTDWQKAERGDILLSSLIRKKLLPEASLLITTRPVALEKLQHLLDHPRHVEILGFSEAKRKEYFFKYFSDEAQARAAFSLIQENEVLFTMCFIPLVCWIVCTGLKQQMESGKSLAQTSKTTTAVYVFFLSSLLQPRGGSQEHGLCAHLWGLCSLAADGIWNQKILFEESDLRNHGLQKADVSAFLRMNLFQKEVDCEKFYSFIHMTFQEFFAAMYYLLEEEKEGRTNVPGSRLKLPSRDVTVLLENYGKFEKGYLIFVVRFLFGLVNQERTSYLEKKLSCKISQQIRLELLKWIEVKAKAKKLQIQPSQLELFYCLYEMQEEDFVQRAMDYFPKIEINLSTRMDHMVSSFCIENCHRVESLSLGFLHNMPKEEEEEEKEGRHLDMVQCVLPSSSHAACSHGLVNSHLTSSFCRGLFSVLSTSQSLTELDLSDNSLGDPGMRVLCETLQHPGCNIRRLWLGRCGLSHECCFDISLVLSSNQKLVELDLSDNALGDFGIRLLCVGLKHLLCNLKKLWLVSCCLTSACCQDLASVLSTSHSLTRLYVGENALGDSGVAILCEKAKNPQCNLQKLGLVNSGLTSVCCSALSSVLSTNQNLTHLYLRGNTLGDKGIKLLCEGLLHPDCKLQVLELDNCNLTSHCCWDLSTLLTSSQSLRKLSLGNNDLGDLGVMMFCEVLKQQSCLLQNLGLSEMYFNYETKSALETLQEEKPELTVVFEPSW
# assay_explanation: Agonistic effect on the expression of IL-1β in THP-1 cells after PMA-induced differentiation (HTRF)
# Assay type: cell-based
# settings: IL-1β level, PMA-differentiated THP-1 cells, 6 hours
Hi! Just check whether EC50 is below 0.07 µM. Below gives label 1, equal or above gives label 0.

1. CNC(=O)CNc1cc(N)nc2cc(-c3ccn[nH]3)sc12 : label 0
2. CN1CCC(Nc2cc(N)nc3cc(-c4ccn[nH]4)sc23)CC1 : label 0
3. C[C@H](Nc1cc(N)nc2cc(-c3ccn[nH]3)sc12)c1cccc(C(F)(F)F)c1 : label 1
4. CN(CCNc1cc(N)nc2cc(-c3ccn[nH]3)sc12)C(=O)C1CC1 : label 0
5. Cc1c(-c2cc[nH]n2)sc2c(NCC3CC3)cc(N)nc12 : label 0
6. Nc1cc(N2CCCC(O)C2)c2sc(-c3ccn[nH]3)cc2n1 (stereo not drawn) : label 0
7. Nc1cc(N[C@H]2CC[C@H](O)CC2)c2sc(-c3ccn[nH]3)cc2n1 : label 1

====

# target_entity: hNLRP3 inflammasome (Homo sapiens, UniProt Q96P20)
# Construct: endogenous in cells; host or cells: THP-1 cells, PMA-differentiated
# assay_explanation: Agonistic effect on the expression of IL-1β in THP-1 cells after PMA-induced differentiation (HTRF)
# Type: cell-based
# settings: IL-1β level, PMA-differentiated THP-1 cells, 6 hours
Where a name gives a salt, the structure may show the parent alone.
quantity_name: log10(EC50) (log10 of the value in µM)

1) Nc1cc(N2CCN(C3CCCCC3)CC2)c2sc(-c3ccn[nH]3)cc2n1 : -2.00
2) CC1(O)CCN(CCCNc2cc(N)nc3cc(-c4ccn[nH]4)sc23)CC1 : -0.27
3) Cc1cccc(-c2cc3nc(N)cc(NCCCO)c3s2)n1 : -0.96
4) CC(=O)N(C)CCNc1cc(N)nc2cc(-c3ccn[nH]3)sc12 : -0.74
5) Nc1cc(NCCCO)c2sc(-c3ccncc3)cc2n1 : 0.78
6) Nc1cc(N[C@@H]2CC[C@@H](O)C2)c2sc(-c3ccn[nH]3)cc2n1 [Compound 30] : -1.52
7) CC(C)(CO)CNc1cc(N)nc2cc(-c3ccn[nH]3)sc12 : -1.40
8) CC(CO)(CO)CNc1cc(N)nc2cc(-c3ccn[nH]3)sc12 : -0.22
9) Nc1cc(NCCN2CCCC2=O)c2sc(-c3ccn[nH]3)cc2n1 : -0.49
10) C[C@@H]1COCCN1c1cc(N)nc2cc(-c3ccn[nH]3)sc12 : -1.52
11) CC(=O)NCCCNc1cc(N)nc2cc(-c3ccn[nH]3)sc12 : -0.74
12) COC1CCN(c2cc(N)nc3cc(-c4ccn[nH]4)sc23)C1 (stereo not shown) : -2.00
13) COCCNc1cc(N)nc2cc(-c3ccn[nH]3)sc12 [Compound 100] : -1.52
14) CC1(C)CCN(c2cc(N)nc3cc(-c4ccn[nH]4)sc23)CC1 : -1.00
15) CC(=O)NCCNc1cc(N)nc2cc(-c3ccn[nH]3)sc12 : -0.70
16) Nc1cc(NCCCO)c2sc(-c3ccccc3)cc2n1 : -0.74
17) CCC(=O)N(C)CCNc1cc(N)nc2cc(-c3ccn[nH]3)sc12 : -1.40
18) Nc1cc(N2CCN(C=O)CC2)c2sc(-c3ccn[nH]3)cc2n1 : -0.77
19) CN1CCN(c2cc(N)nc3cc(-c4ccn[nH]4)sc23)CC1 : -0.74
20) Nc1cc(NC2CCCC2)c2sc(-c3ccn[nH]3)cc2n1 [Compound 110s, hydrochloride] : -1.52
21) CC1CN(CCNc2cc(N)nc3cc(-c4ccn[nH]4)sc23)CC(C)O1 (stereo not shown) : -1.22
22) CCC(=O)N(CC)CCNc1cc(N)nc2cc(-c3ccn[nH]3)sc12 : -0.51
23) CCC(CC)Nc1cc(N)nc2cc(-c3ccn[nH]3)sc12 [Compound 113s, hydrochloride] : -2.00
24) Cc1c(-c2cc[nH]n2)sc2c(NCCCO)cc(N)nc12 : 0.11
25) CS(=O)(=O)N1CCN(c2cc(N)nc3cc(-c4ccn[nH]4)sc23)CC1 : -2.22
26) COC(C)(C)CNc1cc(N)nc2cc(-c3ccn[nH]3)sc12 : -0.64
27) C[C@@H]1CN(c2cc(N)nc3cc(-c4ccn[nH]4)sc23)C[C@H](C)O1 : -2.00
28) CC(C)C[C@H](CO)Nc1cc(N)nc2cc(-c3ccn[nH]3)sc12 : -0.42
29) Nc1cc(NCCCN2CCCC2=O)c2sc(-c3ccn[nH]3)cc2n1 : -0.80
30) Cc1cccnc1CNc1cc(N)nc2cc(-c3ccn[nH]3)sc12 : -1.52
31) C[C@@H]1CN(CCNc2cc(N)nc3cc(-c4ccn[nH]4)sc23)C[C@H](C)O1 : -0.57
32) Nc1cc(N2CCN(C3CCCC3)CC2)c2sc(-c3ccn[nH]3)cc2n1 : -0.96
33) CCN(CCNc1cc(N)nc2cc(-c3ccn[nH]3)sc12)C(=O)Cc1cccc(C)c1 : -0.30
34) Nc1cc(N[C@H]2C[C@H]2CO)c2sc(-c3ccn[nH]3)cc2n1 [Compound 182s] : -0.96
35) CN1CCC[C@@H](Nc2cc(N)nc3cc(-c4ccn[nH]4)sc23)C1 : -0.77
36) C[C@@H](CO)Nc1cc(N)nc2cc(-c3ccn[nH]3)sc12 : -0.47
37) C[C@H]1CC[C@H](Nc2cc(N)nc3cc(-c4ccn[nH]4)sc23)CC1 : -0.96
